tested on: Leishmania donovani; test: Leishmania intramacrophage assay; format: functional, organism-based; design: scale not given: in the data most compounds retested in dose-response had high values; settings: 30.3 µM; […]
Hit rate of the full screen: of about 69,000 compounds, about 1,000 (1.4%) showed an effect of 50% or more. The sample as a whole holds a higher share of strong results than the screen did.
Please enter satisfied where Percent Effect is greater than or equal to 30%, and not satisfied where it is lower.

Could you tell me if the measured Percent Effect of CN(CCO)C[C@@H]1CN(C2CCN(c3ccccc3Cl)CC2)C[C@@H]1CO reaches 30% or more?
satisfied

Could you tell me if the measured Percent Effect of CN(CCO)C[C@@H]1CN(Cc2ccccc2C#N)C[C@@H]1CO reaches 30% or more?
not satisfied

Could you tell me if the measured Percent Effect of O=S(=O)(CCCN1CCOC(Cn2cccn2)C1)c1ccccc1 (stereo not drawn) reaches 30% or more?
not satisfied

Could you tell me if the measured Percent Effect of Cc1nc(S(=O)(=O)N2CCC3(CCCCC3)C2)cn1C reaches 30% or more?
not satisfied

Could you tell me if the measured Percent Effect of CC(C)N(C)C(=O)C1CSCN1S(=O)(=O)c1cc(Cl)ccc1Cl (stereo not drawn) reaches 30% or more?
not satisfied

Could you tell me if the measured Percent Effect of CC(C)(C)NC(=O)C1CSCN1S(=O)(=O)c1ccccc1F (stereo not drawn) reaches 30% or more?
not satisfied

Could you tell me if the measured Percent Effect of OC1(CNCCc2csc(-c3cccnc3)n2)CCNC1 (stereo not drawn) reaches 30% or more?
not satisfied

Could you tell me if the measured Percent Effect of NCCn1nc(C2CCN(Cc3ccccc3)C2)c2nccnc21 (stereo not drawn) reaches 30% or more?
not satisfied

Could you tell me if the measured Percent Effect of Cc1cc(N(C)CCOc2ccccc2F)nc(N)n1 reaches 30% or more?
satisfied

Could you tell me if the measured Percent Effect of O=C(CNC(=O)C1(c2ccc(F)cc2F)CCC1)Nc1cccnc1 reaches 30% or more?
not satisfied

Could you tell me if the measured Percent Effect of Cc1nnc(N2CC[C@@H](OCC3CC3)[C@@H](Cc3ccccc3)C2)s1.O=C(O)C(F)(F)F reaches 30% or more?
satisfied

Could you tell me if the measured Percent Effect of CN(CCO)C[C@@H]1CN(Cc2ccccc2-c2ccccc2)C[C@@H]1CO reaches 30% or more?
satisfied

Could you tell me if the measured Percent Effect of Cc1ccccc1CN1C[C@@H](CN(C)CCO)[C@@H](CO)C1 reaches 30% or more?
not satisfied

Could you tell me if the measured Percent Effect of CC(C)N(CCO)C(=O)c1cc(COc2ccc3c(c2)CCCC3)on1 reaches 30% or more?
not satisfied

Could you tell me if the measured Percent Effect of CN1CC[C@H](N(C)Cc2ccccc2)C[C@H](O)C1 reaches 30% or more?
not satisfied

Could you tell me if the measured Percent Effect of CO[C@@H]1CCN(c2nnc(C)s2)C[C@@H]1Cc1ccccc1.O=C(O)C(F)(F)F reaches 30% or more?
not satisfied

Could you tell me if the measured Percent Effect of CN(C)C[C@@H]1CN(C(=O)Cc2ccccc2)C[C@@H]1CO reaches 30% or more?
not satisfied

Could you tell me if the measured Percent Effect of Cc1cc(F)ccc1N1CCC(N2C[C@@H](C)[C@@](C)(O)C2)CC1 reaches 30% or more?
satisfied

Could you tell me if the measured Percent Effect of CCC(O)Cn1nc(-c2ccc(C(=O)O)cc2)cc1-c1ccc(F)cc1 (stereo not drawn) reaches 30% or more?
satisfied

Could you tell me if the measured Percent Effect of NCCn1nc(C2CCN(Cc3ccccc3Cl)C2)c2nccnc21 (stereo not drawn) reaches 30% or more?
not satisfied

Could you tell me if the measured Percent Effect of O=C(CCc1ccco1)NS(=O)(=O)N1CCOc2ccccc21 reaches 30% or more?
satisfied

Could you tell me if the measured Percent Effect of CN1CC[C@H](N(Cc2ccccc2)CC2CC2)C[C@H](O)C1 reaches 30% or more?
satisfied

* * *

system: Leishmania donovani; assay: Leishmania intramacrophage assay; format: functional, organism-based; parameters: scale not given: in the data most compounds retested in dose-response had high values; settings: 30.3 µM; […]
Hit rate of the full screen: of about 69,000 compounds, about 1,000 (1.4%) showed an effect of 50% or more. The sample holds strong results, similar compounds and a random draw of the others, so the mix is not that of the screen.
recorded.endpoint: Percent Effect (%)
Just the number please, in %, no unit attached.

Please supply the value of reported Percent Effect for the item O=C(Cc1ccccc1)N1CCC2(CC1)CN(c1ncccn1)CCO2
60.82

Please supply the value of reported Percent Effect for the item COc1cc2c(cc1C1CC(=O)NCc3nc(N(C)C)sc31)CCC2 (stereo unspecified)
11.87

Please supply the value of reported Percent Effect for the item CN(Cc1ccc([S+](C)[O-])cc1)c1ccc(Br)cn1 (stereo unspecified)
20.24

Please supply the value of reported Percent Effect for the item O=C(O)C(F)(F)F.O=C(c1cc(C2CC2)on1)N1C[C@@H]2COC[C@]2(COc2cccnc2)C1
50.64

Please supply the value of reported Percent Effect for the item CC1COC2(CCN(C(=O)Cc3ccncc3)CC2)C1.O=C(O)C(F)(F)F (stereo unspecified)
9.251

Please supply the value of reported Percent Effect for the item CN(Cc1ccccc1)c1ccc(C(F)(F)F)cn1
14.63

* * *

Please go through the items and note down their Percent Effect.
system: Leishmania donovani; experiment: Leishmania intramacrophage assay; assay type: functional, organism-based; design: scale not given: in the data most compounds retested in dose-response had high values; settings: 30 µM; 30.03 µM
Hit rate of the full screen: of about 69,000 compounds, about 1,000 (1.4%) showed an effect of 50% or more. The sample holds strong results, similar compounds and a random draw of the others, so the mix is not that of the screen.
Just the number please, in %, no unit attached.

For Leishmania donovani, give Percent Effect of the listed compound: COc1c(CNCc2cccc(CN(C)C)c2)c(C)nn1C.Cl
41.69

For Leishmania donovani, give Percent Effect of the listed compound: N#Cc1ccccc1CN1C[C@@H]2CC[C@H](C1)N(CC1CC1)C2=O
6.562

For Leishmania donovani, give Percent Effect of the listed compound: Cc1ccccc1CC1(CO)CCCN(c2ncccc2C#N)C1 (stereo not given)
15.87

For Leishmania donovani, give Percent Effect of the listed compound: CC(=O)N(Cc1ncc(C)o1)C1CCN(Cc2ccncc2Cl)C1 (stereo not given)
31.13

For Leishmania donovani, give Percent Effect of the listed compound: CCn1nc(C)c2ncnc(NCC(=O)N3CCOCC3)c21
13.04

For Leishmania donovani, give Percent Effect of the listed compound: Cl.c1ccc(-c2ccc(C3CNCCO3)nc2)cc1 (stereo not given)
21.61

For Leishmania donovani, give Percent Effect of the listed compound: O=C(C1SCCc2sccc21)N1CCN(CCO)CC1 (stereo not given)
-7.988

For Leishmania donovani, give Percent Effect of the listed compound: Cc1nc(CN2CCCC(NCCOc3ccccc3)C2)no1 (stereo not given)
33.1

For Leishmania donovani, give Percent Effect of the listed compound: CN(C)c1cncc(C2CCN(CCO)CC2)n1
34.76

For Leishmania donovani, give Percent Effect of the listed compound: Cc1ccc(CN(CCCn2ccnc2)Cc2c[nH]cn2)s1.O=C(O)CC(O)(CC(=O)O)C(=O)O
29.23

For Leishmania donovani, give Percent Effect of the listed compound: Cc1ccccc1-c1noc(CN2CCn3c(nnc3C3CC3)C2)n1
9.47

For Leishmania donovani, give Percent Effect of the listed compound: CCc1nc(N)sc1C(=O)N1CCCC(CCc2ccccc2C)C1 (stereo not given)
59.23

For Leishmania donovani, give Percent Effect of the listed compound: Cc1nccc(CNC(=O)NCCOc2ccc(F)c(F)c2)n1
3.237

For Leishmania donovani, give Percent Effect of the listed compound: Cc1nnc2n1CCN(C(=O)COCCOc1ccccc1)C2
16.55

For Leishmania donovani, give Percent Effect of the listed compound: Cn1cc(CN2CCC3(CCCN(Cc4ccccn4)C3)CC2)cn1
51.96

For Leishmania donovani, give Percent Effect of the listed compound: COc1c(CNCc2cccc(Cn3ccnc3)c2)c(C)nn1C
57.06

For Leishmania donovani, give Percent Effect of the listed compound: CC(C)Nc1nc2c(cc1C(=O)NCC1CC1)CCNCC2.O=C(O)C(F)(F)F.O=C(O)C(F)(F)F
30.72

For Leishmania donovani, give Percent Effect of the listed compound: O=C(O)C(F)(F)F.O=C([C@H]1CN(CCc2ccccc2)C[C@H]2OCC[C@@H]12)N1CCCO1
22.49

For Leishmania donovani, give Percent Effect of the listed compound: Cc1cc(N2CCC(N(C)C(=O)Nc3ccccc3)CC2)nc(C)n1
11.78

For Leishmania donovani, give Percent Effect of the listed compound: Cc1ncsc1C(=O)N(C)Cc1ccncc1
-5.146

For Leishmania donovani, give Percent Effect of the listed compound: CCc1ccc(CN(CCCn2ccnc2)Cc2ccc(C)s2)o1.O=C(O)CC(O)(CC(=O)O)C(=O)O
12.85

For Leishmania donovani, give Percent Effect of the listed compound: CSCCNC(=O)c1ccc(OC2CCN(CC(C)(C)C)CC2)c(Cl)c1
17.7

For Leishmania donovani, give Percent Effect of the listed compound: Fc1cccc(N2C[C@H]3CCN(c4cccnc4)C[C@H]3C2)c1.O=C(O)C(F)(F)F
57.72

For Leishmania donovani, give Percent Effect of the listed compound: O=C(COc1coc(CN2CCCCCC2)cc1=O)c1ccccc1
12.38

For Leishmania donovani, give Percent Effect of the listed compound: COC(=O)C(NC(=O)COC1CCCC1)c1cc(F)ccc1F (stereo not given)
54.06

For Leishmania donovani, give Percent Effect of the listed compound: Cc1ncc(C)c(N2CCCC(CO)(Cc3cccc(Cl)c3)C2)n1 (stereo not given)
20.29

For Leishmania donovani, give Percent Effect of the listed compound: Cc1nc(C)n(CC2CCCN(c3ncnc4c3CCC4)C2)n1 (stereo not given)
28.07

For Leishmania donovani, give Percent Effect of the listed compound: O=C(O)C(F)(F)F.O=C(c1ccnnc1)N1CCN2C[C@H](Oc3cccc(F)c3)C[C@H]2C1
5.462

For Leishmania donovani, give Percent Effect of the listed compound: O=C1N(CCCc2ccccc2)CCCC1(O)CNCc1ccccc1 (stereo not given)
54.86

For Leishmania donovani, give Percent Effect of the listed compound: CN(C)c1ccc(CC(=O)N[C@@H]2CCNC[C@H]2O)cc1
-29.81

For Leishmania donovani, give Percent Effect of the listed compound: CC(=O)N(Cc1ncc(C)o1)C1CCN(Cc2cccc(C#N)c2)C1 (stereo not given)
6.646

For Leishmania donovani, give Percent Effect of the listed compound: Cc1nc(C)n(CC2CCCN(c3ncnc4ccsc34)C2)n1 (stereo not given)
35.24

For Leishmania donovani, give Percent Effect of the listed compound: CCn1c(NCc2ccco2)nc2c(C)nn(C)c2c1=O
16.24

For Leishmania donovani, give Percent Effect of the listed compound: O=C(Nc1nncs1)NC1CCOc2ccccc21 (stereo not given)
-9.341

For Leishmania donovani, give Percent Effect of the listed compound: Cc1cc(N2CCC(N(C)C(=O)c3ccccc3)CC2)nc(C)n1
62.61

For Leishmania donovani, give Percent Effect of the listed compound: COc1ccc(S(=O)(=O)NCc2cccnc2N(C)C)cc1F
58.31

For Leishmania donovani, give Percent Effect of the listed compound: Cc1csc(CNC(=O)NCC(O)c2cccc(Cl)c2)n1 (stereo not given)
17.1

For Leishmania donovani, give Percent Effect of the listed compound: CCSCCC(=O)Nc1ncn(CC(=O)NCc2ccccc2)n1
19.14

For Leishmania donovani, give Percent Effect of the listed compound: COc1c(CNCc2ccc(C(=O)N(C)C)cc2)c(C)nn1C.Cl
56.22

For Leishmania donovani, give Percent Effect of the listed compound: CNC(=O)C1Cn2ccnc2C2(CCN(Cc3cccc(C)n3)CC2)O1.O=C(O)C(F)(F)F (stereo not given)
-9.841

For Leishmania donovani, give Percent Effect of the listed compound: COc1ccc(C2CCCN2C(=O)c2cc3c([nH]c2=O)CCC3)cc1 (stereo not given)
22.34

For Leishmania donovani, give Percent Effect of the listed compound: Cc1nc(C)n(CC2CCCN(c3ncnc4sccc34)C2)n1 (stereo not given)
-10.34

For Leishmania donovani, give Percent Effect of the listed compound: Cc1cnc(CN(C)C2CCN(Cc3nc4ccccc4n3C)C2)o1 (stereo not given)
57.21

For Leishmania donovani, give Percent Effect of the listed compound: Cn1ccc(C(=O)N2CCC(Cc3cnc4[nH]ccc4c3)CC2)n1
27.84

For Leishmania donovani, give Percent Effect of the listed compound: Cc1nc(C)n(CC2CN(c3ncnc4[nH]ccc34)CCO2)n1 (stereo not given)
-5.028

Hey, just so you know, these numbers are from ChEMBL document CHEMBL3988442.
